# System: RAW 264.7 cells
# experimentalProtocol: LPS neutralization cellular proliferation assay, RAW 264.7 cells
# Assay type: cell-based, mouse
Ends that are not written are not given here.
Kindly supply the reported IC50 (peptide concentration at which RAW cell growth was inhibited by 50%) values for the records listed here.

[[record]]
biopolymersequence = "IKISGKWKAQWRFLK [BPI.77]"
testedtarget = "RAW 264.7 cells"
experimentalresult = ">50 µg/mL"


Query sequence follows.
Entry KSKVGWLIQLFHKK [BPI.13p] , tested on RAW 264.7 cells, has a reported IC50 (peptide concentration at which RAW cell growth was inhibited by 50%) of >50 µg/mL

###

# experimentalProtocol: 3H-heparin binding assay (affinity and capacity)
# runConditions: read-out: Heparin Affinity
pKd: −log10 of the molar value. Square brackets hold non-standard residues; d marks the D form. Ends that are not written are not given here. 3Pal = N[C@@H](Cc1cccnc1)C(=O)O
Mark 1 (yes) for reported pKd of 6 or greater; mark 0 (no) for anything smaller.

[[record]]
substance = "KSKVFWLIQLFHKK [BPI.95]"
discretelabel = "1 (yes)"


Task: Hello, I need to know if IKKRAISFLGKKWQK [BPI.75] has measured pKd not below 6. Thanks!
Result: 1 (yes)

Task: Hello, I need to know if GTAALQKELKRIKIP [BPI.54] has measured pKd not below 6. Thanks!
Result: 1 (yes)

Task: Hello, I need to know if KSKVKWLIKLFFKFKSKVKWLIKLFFKF [BPI.101] has measured pKd not below 6. Thanks!
Result: 0 (no)

Task: Hello, I need to know if IKISGKWKAQKRFAK [BPI.27] has measured pKd not below 6. Thanks!
Result: 1 (yes)

Task: Hello, I need to know if IKISGKAβ-(3-pyridyl)KAQKRFLK (IKISGK[3Pal]KAQKRFLK) [BPI.70] has measured pKd not below 6. Thanks!
Result: 1 (yes)

Task: Hello, I need to know if KSKVKWLIKLFHKK [BPI.100] has measured pKd not below 6. Thanks!
Result: 0 (no)

Task: Hello, I need to know if LQKELKRIKIPDYSDSFKIKHL [BPI.4] has measured pKd not below 6. Thanks!
Result: 1 (yes)

Task: Hello, I need to know if IKASGKWKAQKRFLK [BPI.17] has measured pKd not below 6. Thanks!
Result: 1 (yes)
